Entries and their Potency loss %: 300° F. for 5 minutes, Infused by gum acacia emulsion
test: Potency loss of actives infused into isomalt based candy at 300° F.; format: physicochemical
Quantity measured: Potency loss %: 300° F. for 5 minutes, Infused by gum acacia emulsion (%)

• C=C(C)[C@H]1CC=C(C)CC1 = −12
• C=C(C)[C@@H]1CCC(C)=C[C@H]1c1c(O)cc(CCCCC)cc1O [CBD, cannabidiol, reference compound] = −3
• CCCCCc1cc(O)c2c(c1)OC(C)(C)c1ccc(C)cc1-2 = 0
• C=CC(=C)CCC=C(C)C = −10
• CCCCCc1cc(O)c2c(c1)OC(C)(C)[C@@H]1CCC(C)=C[C@@H]21 [THC, tetrahydrocannabinol, reference compound] = −8
